Each recorded value in this set is attributed to patent US20250346580A1.

# TEST NAME: Microsome clearance assay, rat
# Type: in vitro ADME
# CONDITION DESCRIPTION: rat microsomes 0.5 mg/mL plus NADPH, 37° C., test compound 1 microM; third value of cell
MEASURED QUANTITY: microsomal CLint at 1 µM (µL/min/mg)

I. N#Cc1ccc(NS(=O)(=O)c2c[nH]c(-c3ncccc3F)c2)c(F)c1
II. COc1nc(OCC(F)F)c(F)nc1NS(=O)(=O)c1c[nH]c(-c2ccccc2)c1
III. O=S(=O)(Nc1cc(F)c(OC(F)F)cc1F)c1c[nH]c(-c2nccs2)c1
Prompt line: Lab note: rank above entries, microsomal CLint at 1 µM ascending. Thanks in advance for listing the labels in the requested order.
Response line: I, III, II
(I: 79 µL/min/mg, III: 207 µL/min/mg, II: 489 µL/min/mg)

* * *

# TEST NAME: Microsome clearance assay, mouse
# Assay type: in vitro ADME
# CONDITION DESCRIPTION: mouse microsomes 0.5 mg/mL plus NADPH, 37° C., test compound 1 microM; second value of cell
MEASURED QUANTITY: microsomal CLint at 1 µM (µL/min/mg)

| COMPOUND | microsomal CLint at 1 µM [µL/min/mg] |
| --- | --- |
| N#Cc1ccc(NS(=O)(=O)c2c[nH]c(-c3ncccc3F)c2)c(F)c1 [RE-B] | 43 |

A. O=S(=O)(Nc1cc(F)c(Br)cc1F)c1c[nH]c(-c2ncccc2F)c1 [RE-C]
B. O=S(=O)(Nc1cc(F)c(OC(F)F)cc1F)c1c[nH]c(-c2nccs2)c1 [RE-D]
C. COc1nc(OCC(F)F)c(F)nc1NS(=O)(=O)c1c[nH]c(-c2ccccc2)c1 [RE-A]
Prompt line: Hey, quick one: sort these by microsomal CLint at 1 µM, low to high? Thanks in advance for listing the labels in the requested order.
Response line: B, C, A

* * *

# TARGET ENTITY: human GPR17 short isoform (Homo sapiens)
# TEST NAME: GPR17 cAMP assay (hGPR17 cAMP)
# CONDITION DESCRIPTION: CHO-K1 cells stably expressing human GPR17 short isoform; antagonist mode with EC80 of MDL29,951, forskolin 15 μM, TR-FRET cAMP
pIC50: −log10 of the molar value.
MEASURED QUANTITY: pIC50

| CHEMICAL SMILES | pIC50 |
| --- | --- |
| COc1nc(NS(=O)(=O)c2c[nH]cc2Cc2ccccc2)nc(OC)c1OCCF | 5.97 |
| COc1nc(NS(=O)(=O)c2c[nH]c(C3CCC3)c2)nc(OC)c1OC(F)F | 6.13 |

P. COc1nc(NS(=O)(=O)c2c[nH]c(-c3nccs3)c2)ncc1OCC(F)F
Q. COc1nc(NS(=O)(=O)c2c[nH]c(-c3cscn3)c2)nc(OC)c1OC(F)F
Prompt line: For the two items P and Q , which reports the higher pIC50 value? Kindly give the label for the entry you pick.
Response line: P
(P: 6.16, Q: 5.64)

* * *

# TARGET ENTITY: human GPR17 short isoform (Homo sapiens, UniProt Q13304)
# Sequence (Q13304 29-367): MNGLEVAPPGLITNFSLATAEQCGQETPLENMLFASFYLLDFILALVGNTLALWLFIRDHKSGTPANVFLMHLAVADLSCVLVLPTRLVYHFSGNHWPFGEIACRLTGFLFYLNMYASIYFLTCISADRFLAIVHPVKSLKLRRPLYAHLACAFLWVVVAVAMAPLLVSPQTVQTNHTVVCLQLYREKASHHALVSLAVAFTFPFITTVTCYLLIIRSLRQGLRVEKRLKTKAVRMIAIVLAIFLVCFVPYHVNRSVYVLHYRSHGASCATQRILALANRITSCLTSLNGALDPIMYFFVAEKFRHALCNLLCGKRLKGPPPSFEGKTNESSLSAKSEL
# TEST NAME: GPR17 cAMP assay (hGPR17 cAMP)
# Format: cell-based
# CONDITION DESCRIPTION: CHO-K1 cells stably expressing human GPR17 short isoform; antagonist mode with EC80 of MDL29,951, forskolin 15 μM, TR-FRET cAMP
pIC50: −log10 of the molar value.
MEASURED QUANTITY: pIC50

Reference set, count: 2
| CHEMICAL SMILES | TARGET ENTITY | pIC50 |
| --- | --- | --- |
| COc1nc(NS(=O)(=O)c2c[nH]c(-c3cscn3)c2)nc(OC)c1CC(F)F | human GPR17 short isoform (Homo sapiens, UniProt Q13304) | 6.18 |
| COc1nc(NS(=O)(=O)c2c[nH]c(-c3cscn3)c2)nc(OC)c1OCCF | human GPR17 short isoform (Homo sapiens, UniProt Q13304) | 6.04 |

P. COc1nc(NS(=O)(=O)c2c[nH]c(-c3cscn3)c2)nc(OC)c1OCC(F)F
Q. COc1nc(NS(=O)(=O)c2c[nH]c(-c3ncccc3F)c2)nc(OC)c1OCC(F)F
Prompt line: For the two items P and Q , which reports the higher pIC50 value? Kindly give the label for the entry you pick.
Response line: Q

* * *

# TARGET ENTITY: human GPR17 short isoform (Homo sapiens, UniProt Q13304)
# TEST NAME: GPR17 cAMP assay (hGPR17 cAMP)
# CONDITION DESCRIPTION: CHO-K1 cells stably expressing human GPR17 short isoform; antagonist mode with EC80 of MDL29,951, forskolin 15 μM, TR-FRET cAMP
MEASURED QUANTITY: IC50 (µM)

| MOLECULE | UNIT OF MEASURE | VALUE MEASURED |
| --- | --- | --- |
| COc1nc(NS(=O)(=O)c2c[nH]c(-c3ncccc3F)c2)nc(OC)c1CCC#N [Example 23] | µM | 0.045 |
| COc1nc(NS(=O)(=O)c2c[nH]c(-c3nc(C)cs3)c2)nc(OC)c1OCCF [Example 31] | µM | 0.222 |
| COc1nc(NS(=O)(=O)c2c[nH]c(-c3ccccc3F)c2)nc(OC)c1OC(F)F [Example 39] | µM | 0.354 |
| COc1nc(NS(=O)(=O)c2c[nH]c(-c3cnc(C)s3)c2)nc(OC)c1OCC(F)F [Example 42] | µM | 1.99 |

a. COc1nc(NS(=O)(=O)c2c[nH]cc2Cc2ccccc2)nc(OC)c1OC(F)F [Example 22]
b. COc1nc(NS(=O)(=O)c2c[nH]c(-c3nc(C)cs3)c2)nc(OC)c1OCC(F)F [Example 33]
Prompt line: For the two items a and b , which reports the higher IC50 value? Kindly give the label for the entry you pick.
Response line: a

1. COc1nc(NS(=O)(=O)c2c[nH]c(-c3nccs3)c2)nc(OC)c1OC(F)F [Example 14]
2. COc1nc(NS(=O)(=O)c2c[nH]c(-c3ccccc3)c2)nc(OC)c1OCC(F)F [Example 1]
Prompt line: Pick one, 1 or 2 : lowest reported IC50. Kindly give the label for the entry you pick.
Response line: 1

* * *

# TARGET ENTITY: human GPR17 short isoform (Homo sapiens, UniProt Q13304)
# TEST NAME: GPR17 cAMP assay (hGPR17 cAMP)
# Assay type: cell-based
# CONDITION DESCRIPTION: CHO-K1 cells stably expressing human GPR17 short isoform; antagonist mode with EC80 of MDL29,951, forskolin 15 μM, TR-FRET cAMP
pIC50: −log10 of the molar value.
MEASURED QUANTITY: pIC50

| CHEMICAL SMILES | pIC50 |
| --- | --- |
| COc1nc(NS(=O)(=O)c2c[nH]c(-c3cncs3)c2)nc(OC)c1OCC(F)F | 6.95 |
| COc1nc(NS(=O)(=O)c2c[nH]c(-c3ncccc3Cl)c2)nc(OC)c1OCC(F)F | 7.11 |
| COc1nc(NS(=O)(=O)c2c[nH]c(-c3ncccc3F)c2)nc(OC)c1CC(F)F | 6.97 |
| COc1nc(NS(=O)(=O)c2c[nH]c(-c3ccncn3)c2)nc(OC)c1OCC(F)F | 5.79 |
| COc1nc(NS(=O)(=O)c2c[nH]c(-c3ccccc3F)c2)nc(OC)c1OCC(F)F | 6.27 |
| COc1nc(NS(=O)(=O)c2c[nH]c(-c3ccccc3)c2)nc(OC)c1OC(F)F | 6.32 |

a. COc1nc(NS(=O)(=O)c2c[nH]c(-c3ccccc3)c2)nc(OC)c1CC(F)F
b. COc1nc(NS(=O)(=O)c2c[nH]c(-c3nccs3)c2)nc(OC)c1CCC#N
Prompt line: For the two items a and b , which reports the higher pIC50 value? Kindly give the label for the entry you pick.
Response line: b
(b: 7.16, a: 6.77)

* * *

# TARGET ENTITY: human GPR17 short isoform (Homo sapiens)
# TEST NAME: GPR17 cAMP assay (hGPR17 cAMP)
# CONDITION DESCRIPTION: CHO-K1 cells stably expressing human GPR17 short isoform; antagonist mode with EC80 of MDL29,951, forskolin 15 μM, TR-FRET cAMP
MEASURED QUANTITY: IC50 (nM)

| COMPOUND | VALUE MEASURED |
| --- | --- |
| COc1nc(NS(=O)(=O)c2c[nH]c(-c3ncc(C)s3)c2)nc(OC)c1OCC(F)F | 2670 |
| COc1nc(NS(=O)(=O)c2c[nH]c(-c3ccccn3)c2)nc(OC)c1OC(F)F | 344 |
| COc1nc(NS(=O)(=O)c2c[nH]c(-c3ncccn3)c2)nc(OC)c1OCC(F)F | 1250 |
| COc1nc(NS(=O)(=O)c2c[nH]c(C3CCC3)c2)nc(OC)c1OCC(F)F | 304 |
| COc1nc(NS(=O)(=O)c2c[nH]c(-c3ccccn3)c2)nc(OC)c1CC(F)F | 133 |

1. COc1nc(NS(=O)(=O)c2c[nH]c(-c3cccn(C)c3=O)c2)nc(OC)c1OCC(F)F
2. COc1nc(NS(=O)(=O)c2c[nH]c(-c3ccccc3F)c2)nc(OC)c1CC(F)F
Prompt line: Pick one, 1 or 2 : lowest reported IC50. Kindly give the label for the entry you pick.
Response line: 2

a. COc1nc(NS(=O)(=O)c2c[nH]c(-c3nc(C)cs3)c2)nc(OC)c1OC(F)F
b. COc1nc(NS(=O)(=O)c2c[nH]c(-c3nccs3)c2)nc(OC)c1C1CC1C#N (centres unmarked)
c. COc1nc(NS(=O)(=O)c2c[nH]c(-c3cccnn3)c2)nc(OC)c1OCC(F)F
Prompt line: Hey, quick one: sort these by IC50, low to high? Thanks in advance for listing the labels in the requested order.
Response line: b, c, a
(b: 170 nM, c: 253 nM, a: 523 nM)

P. COc1nc(NS(=O)(=O)c2c[nH]c(-c3cnccn3)c2)nc(OC)c1OCC(F)F
Q. COc1nc(NS(=O)(=O)c2c[nH]c(-c3ncccc3C)c2)nc(OC)c1OCC(F)F
R. COc1nc(NS(=O)(=O)c2c[nH]cc2Cc2ccccc2)nc(OC)c1CC(F)F
S. COc1nc(NS(=O)(=O)c2c[nH]c(-c3nc(C)cs3)c2)nc(OC)c1CC(F)F
Prompt line: Place the items in sequence of falling IC50. Thanks in advance for listing the labels in the requested order.
Response line: P, R, S, Q
(P: 1320 nM, R: 635 nM, S: 198 nM, Q: 122 nM)

I. COc1nc(NS(=O)(=O)c2c[nH]c(-c3ccccn3)c2)nc(OC)c1OCCF
II. COc1nc(NS(=O)(=O)c2c[nH]c(-c3nccs3)c2)nc(OC)c1OCC(F)F
III. COc1nc(NS(=O)(=O)c2c[nH]c(-c3ccccc3)c2)nc(OC)c1OCCF
Prompt line: Hey, quick one: sort these by IC50, low to high? Thanks in advance for listing the labels in the requested order.
Response line: III, I, II
(III: 73 nM, I: 127 nM, II: 500 nM)
